Biological target: MC receptor endogenous to Xenopus laevis melanophores (Xenopus laevis)
Experiment: cell-based or functional assay
* marks the point of attachment. Benzoyl(3-OMe) = COc1cccc(C(=O)*)c1
MCR IC50 nM: antagonism of α-MSH (600 pM) darkening of frog melanophores listing for selected binders.
testReadout: MCR IC50 nM: antagonism of α-MSH (600 pM) darkening of frog melanophores (nM)

| binder | result |
| --- | --- |
| {Benzoyl(3-OMe)}-RRIRPKA-NH2 (SMILES CC[C@H](C)[C@H](NC(=O)[C@H](CCCNC(=N)N)NC(=O)[C@H](CCCNC(=N)N)NC(=O)c1cccc(OC)c1)C(=O)N[C@@H](CCCNC(=N)N)C(=O)N1CCC[C@H]1C(=O)N[C@@H](CCCCN)C(=O)N[C@@H](C)C(N)=O) [SQW-13] | 62 |
| {Benzoyl(3-OMe)}-RAIRPKL-NH2 (SMILES CC[C@H](C)[C@H](NC(=O)[C@H](C)NC(=O)[C@H](CCCNC(=N)N)NC(=O)c1cccc(OC)c1)C(=O)N[C@@H](CCCNC(=N)N)C(=O)N1CCC[C@H]1C(=O)N[C@@H](CCCCN)C(=O)N[C@@H](CC(C)C)C(N)=O) [SQW-8] | 75 |
| {Benzoyl(3-OMe)}-RRARPKL-NH2 (SMILES COc1cccc(C(=O)N[C@@H](CCCNC(=N)N)C(=O)N[C@@H](CCCNC(=N)N)C(=O)N[C@@H](C)C(=O)N[C@@H](CCCNC(=N)N)C(=O)N2CCC[C@H]2C(=O)N[C@@H](CCCCN)C(=O)N[C@@H](CC(C)C)C(N)=O)c1) [SQW-9] | 155 |
